# Assayed System: KRAS-G12D protein (Homo sapiens, UniProt P01116, G12D)
# Sequence (P01116 1-188 isoform P01116-2 G12D): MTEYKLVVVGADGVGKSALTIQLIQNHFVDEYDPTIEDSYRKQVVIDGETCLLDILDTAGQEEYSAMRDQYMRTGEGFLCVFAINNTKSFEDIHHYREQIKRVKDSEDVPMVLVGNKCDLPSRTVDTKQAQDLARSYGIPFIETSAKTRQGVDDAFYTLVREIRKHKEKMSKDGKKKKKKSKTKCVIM
# Procedure Text: SOS-mediated nucleotide exchange assay (BODIPY-GDP / Tb-streptavidin TR-FRET)
# Type: biochemical
*1 amine or outer side, *2 acyl side, *3 side chain or, on linkers, in order; H or OH if unused. Where a SMILES comes first, the peptide text is derived from it. Bridges are numbered along the chain shown (N, C = ends). [ ]: non-standard residue; d: D form. The star is where a group is joined. NMe3Pal(6-Me) = CN[C@@H](Cc1ccc(C)nc1)C(=O)O; X36 = CN([C@@H](Cc1cnn(C)c1)C(=O)[*:2])[*:1]; Ala(thiazol-2-yl) = N[C@@H](Cc1nccs1)C(=O)O; Ethyl(2-pyrrolidin-1-yl) = C1CCN(CC*)C1; Phe(2-F) = N[C@@H](Cc1ccccc1F)C(=O)O; X1 = O=C(C12CC(CN[*:1])(C1)C2)[*:2]; NMeF = CN[C@@H](Cc1ccccc1)C(=O)O; PhLac = O=C(O)[C@@H](O)Cc1ccccc1; 3Pal = N[C@@H](Cc1cccnc1)C(=O)O; Ahp(2) = CCCCC[C@H](N)C(=O)O; Cba = N[C@@H](CC1CCC1)C(=O)O; αMeC = C[C@](N)(CS)C(=O)O; NMeA = CN[C@@H](C)C(=O)O; Nle = CCCC[C@H](N)C(=O)O
Readout Kind: EC50 (µM)
Record the value in µM, omitting the unit from your answer.

Observe how each entry below is paired with its result.
>>> quantitative_readout("CCCC[C@@H]1NC(=O)[C@H](Cc2cccnc2)NC(=O)[C@H](C)N(C)C(=O)[C@H](Cc2ccccc2)OC(=O)C23CC(CNC(=O)[C@H](Cc4ccc(C)nc4)N(C)C(=O)[C@H](CCCC)NC(=O)[C@H](Cc4ccccc4F)NC1=O)(C2)C3 [compound 402] (cyclo([3Pal][Nle][Phe(2-F)][Nle][NMe3Pal(6-Me)][X1][PhLac][NMeA]))")
0.018
>>> quantitative_readout("CCCC[C@@H]1NC(=O)[C@H](Cc2cccnc2)NC(=O)[C@H](C)N(C)C(=O)[C@H](Cc2ccccc2)OC(=O)C23CC(CNC(=O)[C@H](Cc4cnn(C)c4)N(C)C(=O)[C@H](CCCC)NC(=O)[C@H](Cc4ccccc4F)NC1=O)(C2)C3 [compound 403] (cyclo([3Pal][Nle][Phe(2-F)][Nle][X36][X1][PhLac][NMeA]))")
0.017
>>> quantitative_readout("CCCC[C@@H]1NC(=O)[C@H](Cc2ccccc2F)NC(=O)C(CC2CC(F)(F)C2)NC(=O)[C@H](Cc2cncnc2)NC(=O)[C@H](C)N(C)C(=O)[C@H](Cc2ccccc2)OC(=O)C23CC(CNC(=O)[C@H](Cc4cccnc4)N(C)C1=O)(C2)C3 (single isomer, unassigned) [compound 123]")
8.19

Entry CCCCC[C@@H]1NC(=O)[C@H](Cc2ccc(OC)cc2)NC(=O)[C@H](CC2CCC2)NC(=O)[C@H](Cc2ccc(OCCN3CCCC3)cc2)NC(=O)[C@H](CCCNC(=N)N)NC(=O)[C@H](Cc2ccccc2)NC(=O)CSC[C@@](C)(C(N)=O)NC(=O)[C@H](Cc2ccccc2)N(C)C1=O [compound 383] ({CH2CO}-FRY(Ethyl(2-pyrrolidin-1-yl))[Cba]Y(Me)[Ahp(2)][NMeF][αMeC]-NH2; thioether N-8) : reported EC50 = ?
0.00979

Entry CCCC[C@@H]1NC(=O)[C@H](Cc2nccs2)NC(=O)[C@H](C)N(C)C(=O)[C@H](Cc2ccccc2)OC(=O)C23CC(CNC(=O)[C@H](Cc4ccccc4)N(C)C(=O)[C@H](CCCC)NC(=O)[C@H](Cc4ccccc4F)NC1=O)(C2)C3 [compound 320] (cyclo([NMeA][Ala(thiazol-2-yl)][Nle][Phe(2-F)][Nle][NMeF][X1][PhLac])) : reported EC50 = ?
4.36
